- System name: T1, Delta mMor1 (Mus musculus, UniProt P42866, INS358LEVLFQGP/INS51ENLYFQ)
- T1 construct: expressed in transfected cells; host or cells: Sf9 insect cells, baculovirus-infected (BestBac)
- T1 sequence (P42866 with tags, fused parts or gaps INS51ENLYFQ/INS358LEVLFQGP): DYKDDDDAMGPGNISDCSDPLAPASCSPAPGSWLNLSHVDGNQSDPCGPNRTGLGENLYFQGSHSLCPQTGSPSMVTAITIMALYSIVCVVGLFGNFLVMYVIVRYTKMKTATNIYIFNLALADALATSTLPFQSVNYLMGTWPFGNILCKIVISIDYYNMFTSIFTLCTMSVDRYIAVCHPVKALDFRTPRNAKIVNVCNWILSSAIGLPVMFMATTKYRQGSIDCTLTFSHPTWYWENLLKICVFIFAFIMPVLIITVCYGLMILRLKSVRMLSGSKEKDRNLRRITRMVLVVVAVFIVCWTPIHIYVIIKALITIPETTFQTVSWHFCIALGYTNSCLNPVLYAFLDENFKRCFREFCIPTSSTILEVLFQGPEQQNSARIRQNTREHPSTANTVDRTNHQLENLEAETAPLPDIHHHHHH
- Method notes: Flow cytometry binding of VHHs to Delta mMor1/Sf9 cells with or without Mor1 ligand
- Condition label: periplasmic extracts; no ligand, 20 μM Dmt1-Dalda or 20 μM naloxone; mock GPCR Sf9 as control
Measured parameter: Flow cytometry binding profile on Delta mMor1/Sf9 cells

XA9644: Profile III VHH of a new sequence family, SEQ ID NO: 74 (protein, listed as Lama glama) VHH: QVQLVESGGGLVRPGGSLRLSCVDSERIFSISAMGWYRQAPGKQRELVATITSGGTTNYADSVKGRFTISGDTAKNMVYLQMSSLKPEDTAVYYCAADMEVWDYTDGDDDDYWGQGTQVTVSSAAAHHHHHHGAAEQKLISEEDLNGAA :: Profile III
XA8727: Mor1-specific VHH, SEQ ID NO: 6, Profile III, intracellular binder (protein, listed as Lama glama) VHH: QVQLVESGGGLVQAGGSLRLSCAASGFTFDDYAIAWFRQAPGKEREGVSCISSSDGSTYYADSVKGRFTISNDNAKNTVYLQMNSLKPEDTAVYYCAADLSRSCGRGYRYLEVWGQGTQVTVSSAAAHHHHHHGAAEQKLISEEDLNGAA :: Profile III
